- TARGET: Beta-3 adrenergic receptor (Homo sapiens, UniProt P13945)
MEASUREMENT_KIND: Ki (nM)
Answer in nM, number only, no unit symbol.

Looking up COc1c(I)cc(CC2NCCc3cc(O)c(O)cc32)cc1I (stereo unspecified) , I see its Ki listed as 21.4

====

- TARGET: Beta-3 adrenergic receptor (Homo sapiens)
- CONDITION_SUMMARY: ovary
- Sequence (P13945 whole entry, looked up): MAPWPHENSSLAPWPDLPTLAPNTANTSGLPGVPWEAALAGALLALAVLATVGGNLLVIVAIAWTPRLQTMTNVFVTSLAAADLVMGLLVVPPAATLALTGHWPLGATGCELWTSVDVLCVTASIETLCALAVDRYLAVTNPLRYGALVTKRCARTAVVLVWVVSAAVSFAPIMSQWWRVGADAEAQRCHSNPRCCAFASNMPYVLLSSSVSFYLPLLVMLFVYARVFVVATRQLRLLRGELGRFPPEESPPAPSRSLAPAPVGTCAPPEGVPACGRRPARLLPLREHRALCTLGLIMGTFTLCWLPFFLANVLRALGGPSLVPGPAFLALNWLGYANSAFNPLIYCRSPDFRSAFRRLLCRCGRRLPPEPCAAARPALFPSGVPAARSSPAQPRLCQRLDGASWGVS
- Description: Drug concentration which produces cAMP response equal to 50% of its maximal response against human beta-3-adrenoceptor expressed in chinese hamster ovary cells was determined
Measured pKact accompanies every entry in the list below.
Give only the figure.

COc1cc(C[C@@H]2NCCc3cc(O)c(O)cc32)cc(OC)c1OC: 8.6
CC(C)NCC(O)c1ccc(O)c(O)c1 (centres undefined): 7.37
COc1cc(CC2NCCc3nc(N)sc32)cc(OC)c1OC (centres undefined): 5.06

API: the following record is the query input.
Record summary for COc1c(I)cc(CC2NCCc3cc(O)c(O)cc32)cc1I (centres undefined) : reported pKact = 8.76

From: ChEMBL document CHEMBL1132639
